Test system: Datura stramonium lectin (Datura stramonium)
Test: filter
Conditions: 2'-NH2 on all C and U; specificity control
Measurement type: pKd
Entry type: numeric. Quantity: pKd, the -log10 of concentration in molar units.

Task: Provide pKd, tested on Datura stramonium lectin (Datura stramonium), for GGGAAAAGCGAAUCAUACACAAGAUUGGUCGUACUGGACAGAGCCGUGGUAGAGGGAUUGGGACAAAGUGUCAGCUCCGCCAGAGACCAACCGAGAA [WGA ligand 11.20] .
Output: 4.95

---

Biological target: soluble L-selectin (Homo sapiens) (UniProt P14151)
Sequence: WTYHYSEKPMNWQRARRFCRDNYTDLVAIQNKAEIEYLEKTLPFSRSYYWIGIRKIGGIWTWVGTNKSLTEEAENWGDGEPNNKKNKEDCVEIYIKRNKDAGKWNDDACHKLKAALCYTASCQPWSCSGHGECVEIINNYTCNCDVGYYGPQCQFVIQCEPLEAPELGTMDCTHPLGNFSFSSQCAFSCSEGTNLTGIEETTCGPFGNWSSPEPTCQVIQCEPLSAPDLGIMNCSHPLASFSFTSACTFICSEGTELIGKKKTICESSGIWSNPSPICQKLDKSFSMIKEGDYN
Assay: filter
Details: 2'-F C and U; 37 C; table prints SEQ 338
Measurement type: pKd
Entry type: numeric. Quantity: pKd, the -log10 of concentration in molar units.

Task: Provide pKd, tested on soluble L-selectin (Homo sapiens) (UniProt P14151), for GGGAGGACGAUGCGGGAGGAAUGGACWGCGUAUAUCGAGUUGCCUCAGACGACUCGCCCGA [LF1713] .
Output: 9.66

---

Target: CD22beta (CD22b-Rg)
Test: filter
Conditions: 2'-NH2 on all C and U; <5% bound at 660 nM protein
Measurement type: Kd

Task: Report Kd, nothing else, for this sequence: GGGAGGACGAUGCGGUAACAACAAUCAAGGCGGGUUYACCGCCCCAGUAUGAGUACAGACGACUCGCCCGA [F14.12]
Output: > 20 µM

---

Biological target: L-selectin (LS-Rg) (Homo sapiens) (UniProt P14151)
Sequence: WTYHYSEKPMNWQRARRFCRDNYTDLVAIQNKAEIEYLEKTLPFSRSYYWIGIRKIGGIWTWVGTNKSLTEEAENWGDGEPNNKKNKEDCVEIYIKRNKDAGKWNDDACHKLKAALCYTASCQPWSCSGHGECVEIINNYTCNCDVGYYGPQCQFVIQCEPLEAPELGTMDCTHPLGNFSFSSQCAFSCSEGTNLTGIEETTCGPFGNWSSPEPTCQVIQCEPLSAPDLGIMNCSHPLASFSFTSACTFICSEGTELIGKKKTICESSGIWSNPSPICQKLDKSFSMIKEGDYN
Assay: filter
Conditions: 37 C
Measurement type: pKd
Entry type: numeric. Quantity: pKd, the -log10 of concentration in molar units.

Task: Report pKd, nothing else, for this sequence: CTACCTACGATCTGACTAGCCGAGGATCTGATACTTATTGAACATAMCCGCACNCAGGCTTGCTTACTCTCATGTAGTTCC [LD102]
Output: 8.10

---

Biological target: Wheat germ agglutinin (WGA) (Triticum vulgare) (UniProt P10968)
Sequence: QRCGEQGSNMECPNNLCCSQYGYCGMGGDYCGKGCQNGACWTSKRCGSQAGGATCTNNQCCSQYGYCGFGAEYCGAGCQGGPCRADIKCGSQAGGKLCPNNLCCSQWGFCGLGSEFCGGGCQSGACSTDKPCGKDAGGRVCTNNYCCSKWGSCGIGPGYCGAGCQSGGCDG
Test: filter
Conditions: 2'-NH2 C and U; HBSS, room temperature
Measurement type: pKd
Entry type: numeric. Quantity: pKd, the -log10 of concentration in molar units.

Task: Report pKd, nothing else, for this sequence: GGGAAAAGCGAAUCAUACACAAGAGAGGUGRAUGGGAGAGUGGAGCCCGGGUGACUCGAGGAUUCCCGUGCUCCGCCAGAGACCAACCGAGAA [WGA ligand 11.3]
Output: 6.39

Task: Report pKd, nothing else, for this sequence: GGGAAAAGCGAAUCAUACACAAGAGUAGGAGGUUCCAUCACCAGGACUCGGCGGGAACGGAAGGUGAUGSGCUCCGCCAGAGACCAACCGAGAA [WGA ligand 11.35]
Output: 7.05

Entry source: patent US20030059769
